# System: northern corn rootworm (NCR)
# protocolNotes: Sticky trap attraction in corn, phenylethanol analogues (Example 6)
# Type: in vivo, Diabrotica barberi
# reportedConditions: Table 15; 100 mg per trap; four replicates; 24 hour
readout: Mean number of NCR per trap (± standard deviation)

moleculeSmiles	observedMeasurement
Cc1ccc(CCO)cc1	89.2 ± 7.8c per trap
Nc1ccc(CCO)cc1	10.5 ± 2.1a per trap
OCCc1ccc(Cl)cc1	30.0 ± 7.4b per trap
OCCc1ccc(F)cc1	38.0 ± 6.2b per trap
O=[N+]([O-])c1ccc(CCO)cc1	7.7 ± 2.7a per trap
COc1ccc(C=CC=O)cc1	6.4 ± 4.9a per trap
COc1ccc(CCO)cc1	187.7 ± 62.5d* per trap

* * *

As shown below, each of these molecules has a reported Mean number of WCR per trap (± standard deviation), column WCW value.
# Tested on: western corn rootworm (WCR)
# protocolNotes: Sticky trap attraction in corn, phenylethanol analogues (Example 6)
# Format: in vivo, Diabrotica virgifera virgifera
# reportedConditions: Table 17; 100 mg per trap; four replicates; 24 hour
readout: Mean number of WCR per trap (± standard deviation), column WCW

moleculeSmiles	targetOfAssay	observedMeasurement
OCCCc1ccccc1	western corn rootworm (WCR)	4.0 ± 2.9a per trap
COc1ccc(C=CC=O)cc1	western corn rootworm (WCR)	360.2 ± 181.3c per trap
COc1ccc(CCO)cc1	western corn rootworm (WCR)	6.0 ± 4.2a per trap
O=CC=Cc1ccccc1	western corn rootworm (WCR)	56.0 ± 34.6b per trap
COc1ccc(CCCO)cc1	western corn rootworm (WCR)	3.2 ± 2.2a per trap
